System: Bloodstream T. b. brucei (strain 427) cell line 449
Test: Viability assay of bloodstream trypanosomes
Format: cell-based
Details: Trypanosoma brucei, 24 h, read-out: EC50 against T. b. brucei

molecule | EC50
CC1CS(=O)(=O)CCN1/N=C/c1ccc([N+](=O)[O-])o1 (stereo not shown) | ~10 µM
